- assay: chemical genetic growth profiling, strain panel (AID 1159580);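 note: tested at 20 µM; growth read once vehicle control cultures reached saturation at 30 °C; 1 = growth at the plate median or of vehicle wells; lower values mean less growth of the strain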
- run_parameters: S. cerevisiae deletion strains, growth OD, locus YHR129C, strain ARP1, hits give low values
The campaign covered roughly 5,500 compounds. About 2,000 (36%) were called active. Not shown: some 18% with an inconclusive outcome. Some of the results follow.
parameter_measured: normalized growth
The response must contain the number and no unit.

Guide cases for normalized growth, answers given:
{"columns": ["molecule", "normalized growth"],
 "data": [
  ["CO[C@@]1(NC(=O)Cc2cccs2)C(=O)N2C(C(=O)O)=C(COC(N)=O)CS[C@@H]21", 1],
  ["COc1c2c(cc3c1OCO3)C13C=C[C@H](OC)CC1N(C2)CC3O (stereo partly drawn)", 0.994],
  ["CCCCc1nc(Cl)c(CO)n1Cc1ccc(-c2ccccc2-c2nn[nH]n2)cc1", 1.01],
  ["Cc1onc(-c2ccccc2Cl)c1C(=O)N[C@@H]1C(=O)N2[C@@H]1SC(C)(C)[C@@H]2C(=O)O", 1.01]
]}

Record request: normalized growth value, item CC1(C)S[C@@H]2[C@H](NC(=O)Cc3ccccc3)C(=O)N2[C@H]1C(=O)O
0.999

Record request: normalized growth value, item CO[C@H]1C[C@H](O[C@H]2[C@H](C)[C@@H](OC3O[C@H](C)C[C@H](N(C)C)[C@H]3OC(C)=O)[C@@H](C)C[C@]3(CO3)C(=O)[C@H](C)[C@@H](OC(C)=O)[C@@H](C)[C@@H](C)OC(=O)[C@@H]2C)O[C@@H](C)[C@@H]1OC(C)=O (stereo partly drawn)
1.01

Record request: normalized growth value, item CCCc1nc2c(C)cc(-c3nc4ccccc4n3C)cc2n1Cc1ccc(-c2ccccc2C(=O)O)cc1
0.996

Record request: normalized growth value, item CCN(CC)CCNC(=O)c1cc(Cl)c(N)cc1OC
1

* * *

- assay: chemical genetic growth profiling, strain panel (AID 1159580);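 note: tested at 20 µM; growth read once vehicle control cultures reached saturation at 30 °C; 1 = growth at the plate median or of vehicle wells; lower values mean less growth of the strain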
- run_parameters: S. cerevisiae deletion strains, growth OD, locus YHR094C, strain hxt1
Hit rate of the full screen: of about 5,500 compounds, about 2,000 (36%) were called active. Inconclusive results (about 18%) are left out. Rule as the data show it: active = normalized growth mostly below about 0.91 (no sharp cut-off); inconclusive = no clear call, values can overlap the other calls; inactive = mostly above about 0.92. The list shows a part of the results.
Outcome field: choose from T (active), F (inactive)

Examples with answers:
{"columns": ["compound", "qualitative_label"],
 "data": [
  ["CN1C(=O)CCS(=O)(=O)C1c1ccc(Cl)cc1 (stereo not drawn)", "F"],
  ["O=C(OC[C@H]1O[C@H](OC(=O)c2cc(O)c(O)c(OC(=O)c3cc(O)c(O)c(O)c3)c2)[C@H](OC(=O)c2cc(O)c(O)c(OC(=O)c3cc(O)c(O)c(O)c3)c2)[C@@H](OC(=O)c2cc(O)c(O)c(OC(=O)c3cc(O)c(O)c(O)c3)c2)[C@@H]1OC(=O)c1cc(O)c(O)c(OC(=O)c2cc(O)c(O)c(O)c2)c1)c1cc(O)c(O)c(OC(=O)c2cc(O)c(O)c(O)c2)c1", "T"]
]}

Here is the next item to consider.
// return assay outcome for CC(=O)Oc1cccc(C(=O)O)c1OC(C)=O
F

* * *

// normalized growth lookup, one value per entry
- assay: chemical genetic growth profiling, strain panel (AID 1159580);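 note: tested at 20 µM; growth read once vehicle control cultures reached saturation at 30 °C; 1 = growth at the plate median or of vehicle wells; lower values mean less growth of the strain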
- run_parameters: S. cerevisiae deletion strains, growth OD, locus YDR001C, strain nth1, hits give low values
Screen size: about 5,500 compounds; about 2,000 (36%) were called active. Inconclusive results (about 18%) are left out. The list shows a part of the results. Where a SMILES comes first, the peptide text is derived from it. Bridges are numbered along the chain shown (N, C = ends). [ ]: non-standard residue; d: D form. The star is where a group is joined. Octanoyl(6-Me) = CCC(C)CCCCC(=O)*; Orn = NCCC[CH](N)C(=O)O; Dab = NCC[CH](N)C(=O)O

Guide cases for normalized growth, answers given:
{"columns": ["molecule", "normalized growth"],
 "data": [
  ["CC(=O)O[C@H]1CC[C@]2(C)C3CC[C@@]4(C)C(CC5O[C@@]6(CCC(C)CO6)[C@@H](C)C54)C3CC[C@@H]2C1 (some centres not stated)", "1.01 (inactive)"],
  ["COc1ccc([C@H]2COc3c(ccc(O)c3OC)C2)c(OC)c1O", "0.986 (inactive)"],
  ["CC(=O)O[C@H]1CC[C@]2(C)C3CC(=O)[C@]4(C)C(C(C)=O)=CCC4C3CC[C@H]2C1 (some centres not stated)", "0.994 (inactive)"],
  ["CC(C)CC1NC(=O)C(CCCN)NC(=O)C(C(C)C)NC(=O)C2CCCN2C(=O)C(Cc2ccccc2)NC(=O)C(CC(C)C)NC(=O)C(CCCN)NC(=O)C(C(C)C)NC(=O)C2CCCN2C(=O)C(Cc2ccccc2)NC1=O (configuration not stated) (cyclo(FPV[Orn]LFPV[Orn]L); configuration not given here)", "1.03 (inactive)"]
]}

Record request: normalized growth value, item CC(=O)OC1CCC2(C)C3CC(=O)C4(C)C(CC5OC6(CCC(C)CO6)[C@@H](C)C54)C3CC[C@H]2C1 (some centres not stated)
0.988 (inactive)

Record request: normalized growth value, item C[C@]12CCC3C(CC[C@H]4C[C@H](OS(=O)(=O)O)CC[C@]34C)C1CCC2=O (some centres not stated)
1.04 (inactive)

Record request: normalized growth value, item O=c1oc2c(O)c(O)cc3c(=O)oc4c(O)c(O)cc1c4c23
0.96 (inactive)

Record request: normalized growth value, item CCc1cccc2c3c([nH]c12)C(CC)(CC(=O)O)OCC3 (configuration not stated)
0.966 (inactive)

Record request: normalized growth value, item Cc1cc(=O)n(-c2ccccc2)n1C
0.983 (inactive)

Record request: normalized growth value, item NC(=O)NO
1.01 (inactive)

Record request: normalized growth value, item CN1CCN(CC(=O)N2c3ccccc3C(=O)Nc3cccnc32)CC1
1.01 (inactive)

Record request: normalized growth value, item CC(=O)Oc1cccc2c1C(=O)c1c(OC(C)=O)cc(C(=O)O)cc1C2=O
0.93 (inactive)

Record request: normalized growth value, item CCC(C)CCCCC(=O)NC(CCN)C(=O)NC(C(=O)NC(CCN)C(=O)NC1CCNC(=O)C(C(C)O)NC(=O)C(CCN)NC(=O)C(CCN)NC(=O)C(CC(C)C)NC(=O)C(Cc2ccccc2)NC(=O)C(CCN)NC1=O)C(C)O (configuration not stated) ({Octanoyl(6-Me)}-[Dab]T[Dab][Dab][Dab]FL[Dab][Dab]T; lactam 4-C; configuration not given here)
1.01 (inactive)
